target: CYP3A4 (Homo sapiens)
Sequence (P08684 whole entry): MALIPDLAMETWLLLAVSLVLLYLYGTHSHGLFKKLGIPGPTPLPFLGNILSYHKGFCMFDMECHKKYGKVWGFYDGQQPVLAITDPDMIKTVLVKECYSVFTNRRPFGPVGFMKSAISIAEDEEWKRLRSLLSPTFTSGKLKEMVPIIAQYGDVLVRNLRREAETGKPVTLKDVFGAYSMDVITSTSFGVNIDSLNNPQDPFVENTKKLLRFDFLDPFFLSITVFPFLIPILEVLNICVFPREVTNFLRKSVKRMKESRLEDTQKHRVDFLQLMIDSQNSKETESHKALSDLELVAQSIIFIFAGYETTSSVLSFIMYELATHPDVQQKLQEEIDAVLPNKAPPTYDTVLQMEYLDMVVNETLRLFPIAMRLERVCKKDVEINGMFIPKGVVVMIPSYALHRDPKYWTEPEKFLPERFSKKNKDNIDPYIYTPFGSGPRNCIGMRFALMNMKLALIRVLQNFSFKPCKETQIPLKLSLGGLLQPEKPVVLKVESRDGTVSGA
outcome measure: pIC50
Numbers only, as −log10 of the molar value.

Enquiry: Given the compound O=C(N[C@@H]1CCNC1)c1ccn(S(=O)(=O)c2cccc(Cl)c2)c1-c1ccc(F)cc1 , what is its reported pIC50?
Return: 7.16

----------
target: 5-HT6R (Homo sapiens); test: [3H]-LSD radioligand binding assay, HEK293 cells stably expressing human 5-HT6R; set-up: expressed in transfected cells; details: mean of three independent experiments
Sequence (P50406 whole entry): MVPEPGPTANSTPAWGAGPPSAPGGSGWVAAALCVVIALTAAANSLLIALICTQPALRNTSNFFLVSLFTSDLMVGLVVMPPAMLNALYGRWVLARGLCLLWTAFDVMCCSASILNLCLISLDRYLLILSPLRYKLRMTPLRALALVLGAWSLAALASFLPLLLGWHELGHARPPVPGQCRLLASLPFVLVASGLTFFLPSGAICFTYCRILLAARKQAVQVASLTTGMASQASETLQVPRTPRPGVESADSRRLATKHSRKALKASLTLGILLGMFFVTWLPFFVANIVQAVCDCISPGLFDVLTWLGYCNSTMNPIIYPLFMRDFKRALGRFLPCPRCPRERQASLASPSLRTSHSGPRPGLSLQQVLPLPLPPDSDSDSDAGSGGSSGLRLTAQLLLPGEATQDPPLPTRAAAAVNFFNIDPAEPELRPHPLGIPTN
outcome measure: Ki (nM)
Numbers only, in nM.

Enquiry: Given the compound O=C(N[C@@H]1CCNC1)c1ccn(S(=O)(=O)c2cccc(Cl)c2)c1-c1ccc(F)cc1 , what is its reported Ki?
Return: 30
